Target: Mu-type opioid receptor (Homo sapiens)
Sequence (P35372 whole entry): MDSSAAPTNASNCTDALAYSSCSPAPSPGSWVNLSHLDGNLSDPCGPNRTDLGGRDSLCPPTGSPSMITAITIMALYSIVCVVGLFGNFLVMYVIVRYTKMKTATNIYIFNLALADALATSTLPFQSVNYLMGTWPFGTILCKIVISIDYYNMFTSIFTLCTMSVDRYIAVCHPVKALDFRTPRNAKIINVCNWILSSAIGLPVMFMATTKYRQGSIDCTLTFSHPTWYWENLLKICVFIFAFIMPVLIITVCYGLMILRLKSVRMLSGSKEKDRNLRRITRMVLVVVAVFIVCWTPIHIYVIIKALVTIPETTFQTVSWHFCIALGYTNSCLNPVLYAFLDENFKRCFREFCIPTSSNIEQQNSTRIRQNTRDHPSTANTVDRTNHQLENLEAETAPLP
READOUT LABEL: Ki (nM)
Numbers only, in nM.

Reference set (4 entries):
> print(dat)
                                   compound  observed
1  Nc1nc2cc3c(cc2s1)C(=O)[C@@H]1C2CCCC[C@]32CCN1CC1CCC1 (stereo not given in full)       200
2  C[C@H]1[C@H]2Cc3cc4sc(N)nc4cc3[C@]1(C)CCN2CC1CC1        48
3  CN1CC[C@]23c4c5cc6sc(N)nc6c4O[C@H]2[C@@H](O)CCC3[C@H]1C5 (stereo not given in full)        30
4  C[C@H]1[C@H]2Cc3cc4sc(N)nc4cc3[C@]1(C)CCN2CC1CCC1       8.3

The record that follows has no Ki shown yet.
Request: Fill in reported Ki for this entry: CN1CC[C@]23CCCC[C@H]2[C@H]1Cc1cc2sc(N)nc2cc13 (stereo in doubt; 4)
Response: 1.1

----------
Molecular target: Delta-type opioid receptor (Homo sapiens, UniProt P41143)
Sequence (P41143 whole entry): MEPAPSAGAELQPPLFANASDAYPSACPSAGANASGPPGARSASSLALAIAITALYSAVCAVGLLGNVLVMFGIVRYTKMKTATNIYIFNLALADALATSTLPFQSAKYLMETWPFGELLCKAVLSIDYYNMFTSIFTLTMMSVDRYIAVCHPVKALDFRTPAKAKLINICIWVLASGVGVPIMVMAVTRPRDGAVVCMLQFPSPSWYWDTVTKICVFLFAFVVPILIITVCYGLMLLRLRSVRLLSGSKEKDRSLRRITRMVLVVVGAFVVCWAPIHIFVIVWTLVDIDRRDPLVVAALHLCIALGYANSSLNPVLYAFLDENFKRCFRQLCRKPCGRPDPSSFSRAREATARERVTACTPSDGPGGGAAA
Test: Inhibition of [3H]naltrindole binding to opioid receptor delta 1 of Chinese hamster ovary membrane
READOUT LABEL: Ki (nM)
Numbers only, in nM.

Hey, can you go through the list below and give me Ki for every item?
1. C[C@H]1[C@H]2Cc3cc4sc(N)nc4cc3[C@]1(C)CCN2CC1CC1
2. CN1CC[C@]23CCCC[C@H]2[C@H]1Cc1cc2sc(N)nc2cc13 (stereo in doubt; 4)
3. CN1CC[C@]23c4c5cc6sc(N)nc6c4O[C@H]2[C@@H](O)CCC3[C@H]1C5 (stereo partly specified)

Response:
940
190
32

Hey, can you go through the list below and give me Ki for every item?
1. C[C@H]1[C@H]2Cc3cc4sc(N)nc4cc3[C@]1(C)CCN2CC1CCC1
2. C[C@H]1C2Cc3ccc(O)cc3[C@]1(C)CCN2CC1CC1

Response:
[93, 1.1]

----------
A set of molecules tested on Kappa-type opioid receptor (Homo sapiens, UniProt P41145), with measured pKi:
Answers are plain numbers, as −log10 of the molar value.

Reference set (3 entries):
> print(dat)
                                   molecule                                    system  readout.label  observed
1  CN1CC[C@]23c4c5cc6sc(N)nc6c4O[C@H]2[C@@H](O)CCC3[C@H]1C5 (stereo partly specified)  Kappa-type opioid receptor (Homo sapiens, UniProt P41145)            pKi      6.66
2  Nc1nc2cc3c(cc2s1)C(=O)[C@@H]1C2CCCC[C@]32CCN1CC1CCC1 (stereo partly specified)  Kappa-type opioid receptor (Homo sapiens, UniProt P41145)            pKi      7.89
3  CN1CC[C@]23CCCC[C@H]2[C@H]1Cc1cc2sc(N)nc2cc13 (stereo in doubt; 4)  Kappa-type opioid receptor (Homo sapiens, UniProt P41145)            pKi      8.19

Hey, can you go through the list below and give me pKi for every item?
1. C[C@H]1C2Cc3ccc(O)cc3[C@]1(C)CCN2CC1CC1
2. C[C@H]1[C@H]2Cc3cc4sc(N)nc4cc3[C@]1(C)CCN2CC1CC1
3. C[C@H]1[C@H]2Cc3cc4sc(N)nc4cc3[C@]1(C)CCN2CC1CCC1

Response:
1. 9.74
2. 8.17
3. 9.31

Sourced from ChEMBL document CHEMBL1149134
